Test system: PAK2;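 also: KINOMEscan kinase panel screen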
Conditions: concentration: 1 μM, replicates: in singlicate; n = 1
Measured Metric: %Inh
Just the number plus its unit, please.

Worked examples, 5 compounds total:
{"Compound": "Cc1c(Cn2ccn3c(=O)cc(N4CCOCC4)nc23)cccc1C(F)(F)F [GSK2289044]", "Experimental Target": "PAK2", "%Inh": "8%"}
{"Compound": "NC(=O)c1nnc2ccccc2c1N", "Experimental Target": "PAK2", "%Inh": "7%"}
{"Compound": "Cn1ccc2ncnc(Oc3ccc(NC(=O)Nc4ccccc4)cc3)c21", "Experimental Target": "PAK2", "%Inh": "17%"}
{"Compound": "O=C(Nc1n[nH]c2nc(-c3nccs3)c(Br)cc12)C1CC1 [SB-742251]", "Experimental Target": "PAK2", "%Inh": "16%"}
{"Compound": "O=C(Nc1ccccc1)Nc1cccc(Oc2ccc3nccn3n2)c1", "Experimental Target": "PAK2", "%Inh": "0%"}

Measured %Inh for this entry Cc1csc(-c2nc(Nc3ccncc3)c3ccccc3n2)n1 [GW869640] on PAK2: 56%

Measured %Inh for this entry COc1ccc2nc(-c3cccc(C)n3)nc(Nc3ccncc3)c2c1 [GSK204919] on PAK2: 14%

Measured %Inh for this entry O=c1cc(N2CCOCC2)nc2n(Cc3cccc(Cl)c3Cl)ccn12 [GSK2286295] on PAK2: 11%

Measured %Inh for this entry Cc1ccc(C(=O)Nc2ccc(Nc3ccnc4cc(-c5ccccn5)ccc34)cc2O)cc1.Cl [GW440146] on PAK2: 15%

Measured %Inh for this entry Cc1cccc(-c2cc(Nc3ccncc3)c3ccccc3n2)n1 [GSK223675] on PAK2: 2%

Values compiled from paper PMC5540273.
